TESTED_ON: hα2C receptor (Homo sapiens, UniProt P18825)
Construct: expressed in transfected cells; host or cells: CHO cells
Sequence (P18825 whole entry): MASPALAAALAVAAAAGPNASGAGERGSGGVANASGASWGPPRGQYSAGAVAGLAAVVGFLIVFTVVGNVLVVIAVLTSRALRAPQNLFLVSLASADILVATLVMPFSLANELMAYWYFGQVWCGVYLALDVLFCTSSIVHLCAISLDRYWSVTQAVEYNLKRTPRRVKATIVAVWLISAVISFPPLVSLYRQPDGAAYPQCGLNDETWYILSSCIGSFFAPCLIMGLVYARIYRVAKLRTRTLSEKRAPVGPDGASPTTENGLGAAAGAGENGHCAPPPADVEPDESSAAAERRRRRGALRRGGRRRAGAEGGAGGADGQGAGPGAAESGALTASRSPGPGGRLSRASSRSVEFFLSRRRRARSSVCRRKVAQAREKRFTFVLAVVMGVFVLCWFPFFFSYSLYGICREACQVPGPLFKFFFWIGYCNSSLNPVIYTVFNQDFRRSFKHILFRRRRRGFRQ
PROCEDURE_SUMMARY: Radioligand binding experiment for α2C-adrenergic receptor ([3H]-raulwolscine)
EXPERIMENTAL_CONTEXT: CHO cell membranes with human α2C receptor, [3H]raulwolscine 1 nM; read-out: pIC50 α2C (converted)
METRIC_NAME: IC50 (nM)
Reply with just the number (in nM).

# input molecule: CCNC(=O)N(C(=O)NCC)c1ccc2c(c1)OCC1C2=NOC1CN1CCN(CC(C)=Cc2ccc(F)cc2)CC1 (stereo not shown) [Compound 60] ; wanted: its IC50
398

For the molecule C/C(=C\c1ccccc1)CN1CCN(CC2ON=C3c4cc(N5CCOCC5)ccc4OCC32)CC1 (stereo not shown) [Compound 4] , what IC50 is on record?
2.51

Form field: reported IC50 of COc1cc2c(cc1NC(=O)C1CC1)OCC1C2=NOC1CN1CCN(CC(C)=Cc2cccc(F)c2)CC1 (stereo not shown) [Compound 53]
0.631

New cases:
Suppose we examine the molecule CC(=Cc1ccc(F)cc1)CN1CCN(CC2ON=C3c4ccc(NC(=O)OC(C)(C)C)cc4OCC32)CC1 (stereo not shown) [Compound 58] ; what IC50 value has been reported?
31.6

###

The entries below are paired with their reported IC50.
TESTED_ON: hα2C receptor (Homo sapiens)
Construct: expressed in transfected cells; host or cells: CHO cells
PROCEDURE_SUMMARY: Radioligand binding experiment for α2C-adrenergic receptor ([3H]-raulwolscine)
EXPERIMENTAL_CONTEXT: CHO cell membranes with human α2C receptor, [3H]raulwolscine 1 nM; read-out: pIC50 α2C (converted)
// return numeric value only (unit: nM, not printed)

Would you kindly share the measured IC50 for CC(=Cc1ccc(F)cc1)CN1CCN(CC2ON=C3c4ccc(N(C)CCOC(=O)C5CC5)cc4OCC32)CC1 (stereo not shown) [Compound 109] ?
31.6

New cases:
Quick one: IC50 for CCC(C)(C)NCCN(C)c1ccc2c(c1)OCC1C2=NOC1CN1CCN(CC(C)=Cc2ccc(F)cc2)CC1 (stereo not shown) [Compound 120] ?
6.31

Find the recorded IC50 belonging to CC(=Cc1ccc(F)cc1)CN1CCN(CC2ON=C3c4ccc(NCC(C)O)cc4OCC32)CC1 (stereo not shown) [Compound 132] and report it.
31.6

Would you kindly share the measured IC50 for COc1cc2c(cc1NCC(C)C)OCC1C2=NOC1CN1CCN(CC(C)=Cc2ccc(F)cc2)CC1 (stereo not shown) [Compound 116] ?
158

What value of IC50 has been recorded for this entry: C/C(=C\c1ccccc1)CN1CCN(CC2ON=C3c4ccc(N(C)CCN(C)C)cc4OCC32)CC1 (stereo not shown) [Compound 1]
1

Fill in the blank: the reported IC50 of COc1cc2c(cc1N1CCOCC1)OCC1C2=NOC1CN1CCN(CC(C)=Cc2ccc(F)cc2)CC1 (stereo not shown) [Compound 85] is ____.
3.16

Entry under review: COCC(=O)N1CCOc2cc3c(cc21)OCC1C3=NOC1CN1CCN(C/C(C)=C/c2ccccc2)CC1 (stereo not shown) [Compound 15] . Reported IC50?
0.794

###

TESTED_ON: hα2A receptor (Homo sapiens, UniProt P08913)
Construct: expressed in transfected cells; host or cells: CHO cells
Sequence (P08913 1-465): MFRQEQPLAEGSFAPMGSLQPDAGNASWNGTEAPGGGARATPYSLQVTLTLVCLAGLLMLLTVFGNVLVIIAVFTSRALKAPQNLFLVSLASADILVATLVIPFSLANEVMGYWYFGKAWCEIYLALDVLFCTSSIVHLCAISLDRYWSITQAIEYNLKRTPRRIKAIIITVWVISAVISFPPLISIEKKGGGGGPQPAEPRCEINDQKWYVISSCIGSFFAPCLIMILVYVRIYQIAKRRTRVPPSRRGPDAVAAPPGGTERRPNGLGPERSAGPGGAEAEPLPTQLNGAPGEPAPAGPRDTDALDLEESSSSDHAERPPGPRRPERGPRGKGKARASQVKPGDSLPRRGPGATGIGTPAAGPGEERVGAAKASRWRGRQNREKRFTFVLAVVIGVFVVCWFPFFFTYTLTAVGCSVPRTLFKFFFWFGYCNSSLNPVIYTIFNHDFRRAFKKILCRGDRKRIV
PROCEDURE_SUMMARY: Radioligand binding experiment for α2A-adrenergic receptor ([3H]-raulwolscine)
EXPERIMENTAL_CONTEXT: CHO cell membranes with human α2A receptor, [3H]raulwolscine 1 nM; read-out: pIC50 α2A (converted)
Lab note: compare IC50 with 8 nM, writing y if less and n if equal or more.

The following compounds have reported results that may help.
Is IC50 of COc1cc2c(cc1N1CCOCC1)OCC1C2=NOC1CN1CCN(CC(C)=Cc2ccc(F)cc2)CC1 (stereo not shown) strictly below 8 nM?
n

Does CC(=Cc1ccc(F)cc1)CN1CCN(CC2ON=C3c4ccc(N(C)CCNCC(C)O)cc4OCC32)CC1 (stereo not shown) have IC50 strictly under 8 nM?
n

Further cases:
IC50 under 8 nM? Item: CCNc1ccc2c(c1)OCC1C2=NOC1CN1CCN(CC(C)=Cc2ccccc2)CC1 (stereo not shown)
y

Record CC(=Cc1ccc(F)cc1)CN1CCN(CC2ON=C3c4ccc(N5CCCCC5)cc4OCC32)CC1 (stereo not shown) : is its IC50 strictly below 8 nM?
n

Does CCNC(=O)N(C(=O)NCC)c1ccc2c(c1)OCC1C2=NOC1CN1CCN(CC(C)=Cc2ccc(F)cc2)CC1 (stereo not shown) have IC50 strictly under 8 nM?
n
